assay.system: CYP1B1 (Homo sapiens)
Sequence (Q16678 whole entry): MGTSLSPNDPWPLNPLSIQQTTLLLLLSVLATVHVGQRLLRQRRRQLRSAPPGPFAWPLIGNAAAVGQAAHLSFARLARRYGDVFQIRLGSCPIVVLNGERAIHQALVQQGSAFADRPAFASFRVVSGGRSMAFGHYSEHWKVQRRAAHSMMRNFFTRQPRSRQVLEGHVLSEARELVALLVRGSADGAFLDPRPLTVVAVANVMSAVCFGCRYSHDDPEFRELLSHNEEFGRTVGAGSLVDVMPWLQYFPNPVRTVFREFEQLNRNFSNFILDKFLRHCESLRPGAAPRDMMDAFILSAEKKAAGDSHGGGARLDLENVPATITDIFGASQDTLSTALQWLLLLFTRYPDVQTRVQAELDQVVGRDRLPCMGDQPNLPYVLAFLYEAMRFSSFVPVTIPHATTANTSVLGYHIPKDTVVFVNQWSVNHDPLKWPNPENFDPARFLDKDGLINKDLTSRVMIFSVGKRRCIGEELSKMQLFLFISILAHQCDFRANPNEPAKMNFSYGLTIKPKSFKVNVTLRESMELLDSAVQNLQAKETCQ
assay.procedure: Inhibition of human recombinant CYP1B1 using 7-ethoxyresorufin as substrate at 100 uM incubated under dark condition for 30 mins in presence of NADPH by EROD fluorescence assay relative to control
Format: ADME
cond: recombinant CYP1B1, probe 7-ethoxyresorufin
recorded.endpoint: inhibition at 0.5 h, 100 µM (%)
Answer with a number only, understood to be in %.

given.smiles: O=C(Nc1cc(Cl)ccc1Cl)c1nc(-c2ccccc2)cs1
assay.system: CYP1B1 (Homo sapiens)
unit.abbrev: %
inhibition at 0.5 h, 100 µM: 96.2

given.smiles: N#Cc1ccc(NC(=O)c2nc(-c3ccccc3)cs2)cc1
assay.system: CYP1B1 (Homo sapiens)
unit.abbrev: %
inhibition at 0.5 h, 100 µM: 99.3

given.smiles: O=C(Nc1ccc(C(F)F)cc1)c1nc(-c2ccccc2)cs1
assay.system: CYP1B1 (Homo sapiens)
unit.abbrev: %
inhibition at 0.5 h, 100 µM: 99.9

given.smiles: O=C(Nc1ccc(OC(F)(F)F)cc1)c1nc(-c2ccccc2)cs1
assay.system: CYP1B1 (Homo sapiens)
unit.abbrev: %
inhibition at 0.5 h, 100 µM: 92.2

Find the recorded inhibition at 0.5 h, 100 µM belonging to O=C(Nc1ccccc1F)c1nc(-c2ccccc2)cs1 and report it.
69.6

I have this compound here, Cc1ccc(NC(=O)c2nc(-c3ccccc3)cs2)cc1 , and I need its recorded inhibition at 0.5 h, 100 µM.
94.2

If you can, please state the reported inhibition at 0.5 h, 100 µM value of COc1ccc(NC(=O)c2nc(-c3ccccc3)cs2)c(OC)c1 .
89.3

Entry under review: COc1cc(/C=C/c2ccc(OC)cc2OC)cc(OC)c1 . Reported inhibition at 0.5 h, 100 µM?
103

What value of inhibition at 0.5 h, 100 µM has been reported for the following compound? O=C(Nc1ccc(F)cc1)c1nc(-c2ccccc2)cs1
86.7

Query (compound): COc1ccc(OC)c(NC(=O)c2nc(-c3ccccc3)cs2)c1 ; field requested: inhibition at 0.5 h, 100 µM
91.2

Which inhibition at 0.5 h, 100 µM is reported for this compound? O=C(Nc1cccc(F)c1)c1nc(-c2ccccc2)cs1
82.2

Fill in the blank: the reported inhibition at 0.5 h, 100 µM of O=C(Nc1cccc(Cl)c1)c1nc(-c2ccccc2)cs1 is ____.
77.4

What value of inhibition at 0.5 h, 100 µM has been recorded for this entry: COc1ccc(NC(=O)c2nc(-c3ccccc3)cs2)cc1
95

Requested read-out: inhibition at 0.5 h, 100 µM. Entry: NC(=O)c1ccc(NC(=O)c2nc(-c3ccccc3)cs2)cc1
54.6

Param item = O=C(Nc1ccc(Cl)cc1Cl)c1nc(-c2ccccc2)cs1 ; retrieve measured inhibition at 0.5 h, 100 µM.
102

====

Reported remaining at 0.25 h, 100 µM values for a set of compounds
assay.procedure: Stability in human plasma assessed as compound remaining at 100 uM measured after 15 mins by LC-MS/MS analysis
Type: ADME, cell-free
cond: read-out: Stability
Write it as a number; the unit % goes unstated.

compound: N#Cc1ccc(-c2csc(C(=O)Nc3ccc(C(F)(F)F)cc3)n2)cc1
recorded.endpoint: remaining at 0.25 h, 100 µM
experimental.result: 94.2
--
compound: CC(C)[N+](C)(CCOC(=O)C1c2ccccc2Oc2ccccc21)C(C)C [PROPANTHELINE BROMIDE]
recorded.endpoint: remaining at 0.25 h, 100 µM
experimental.result: 66.5
--
compound: N#Cc1ccc(-c2csc(C(=O)Nc3cc(Cl)cc(Cl)c3)n2)cc1
recorded.endpoint: remaining at 0.25 h, 100 µM
experimental.result: 102

Next:
Which remaining at 0.25 h, 100 µM is reported for this compound? O=C(Nc1cc(Cl)cc(Cl)c1)c1nc(-c2cccc(Cl)c2)cs1
104
